- TGT: Mcp (sensing domain; truncated Mcp)
- Construct: predicted extracellular sensing domain, aa 43-325, EcoRI-HindIII in pET-28a(+), His-tagged, E. coli, Ni-NTA; one of 20 mcp genes in the genome; Trp residues W44, W166, W254, W308
- PROTOCOL DETAILS: intrinsic tryptophan fluorescence quenching at […] nm
- CONDITION NOTES: 1.0 μM protein, 0-25 μM As(III), 1 h, room temperature
MEASURED ATTRIBUTE: Kd

Entry O[As](O)O [As(III)] — recorded Kd = 11 µM
